# assay text: pKa of nanoparticle compositions
# Type: physicochemical
# run parameters: Table 1; rows without footnote mark
measurement label: pKa
The reply should be a number, written without any unit.

Input: Endpoint output: pKa of CCCCCCCCCCCCN(CCCCCCCCCCCC)CCN1CCN(CCN(CCCCCCCCCCCC)C(=O)CN(CCCCCCCCCCCC)CCCCCCCCCCCC)CC1 [Compound 1] . Value?
Output: 5.95

Input: Please give the result for CCCCCCCCCN(CCCCCCCC(=O)OC)CCN(CCCCCCCC(=O)OC)CC(=O)N1CCN(C(=O)CN(CCCCCCCCC)CCCCCCCCC)CC1 [Compound 48] too.
Output: 6.99

Input: Please give the result for CCCCCCCCCCCCCCN(CCCCCCCCCCCCCC)CCN(CCCCCCCCCCCCCC)CCN1CCN(CCN(CCCCCCCCC)CCCCCCCCC)CC1 [Compound 30] too.
Output: 6.09

Input: Please give the result for CCCCCCCCCN(CCCCCCCCC)CCN(CCCCCCCC(=O)OC)CC(=O)N1CCN(C(=O)CN(CCCCCCCCC)CCCCCCCCC)CC1 [Compound 47] too.
Output: 6.82

Input: Please give the result for CCCCCCCCCCCCN(CCN(CCCCCCCCC)CCCCCCCCC)CC(=O)N1CCN(C(=O)CN(CCCCCCCCC)CCCCCCCCC)CC1 [Compound 5] too.
Output: 7.01

Input: Please give the result for CCCCCCCCCCCCN(CCCCCCCCCCCC)CCN(CCCCCCCCC)CC(=O)N1CCN(C(=O)CN(CCCCCCCCC)CCCCCCCCC)CC1 [Compound 6] too.
Output: 6.62

Input: Please give the result for CCCCCCCCCCCCN(CCCCCCCCCCCC)CCN(CCCCCCCCC)CC(=O)N1CCN(C(=O)CN(CCCCCCCCCCCC)CCCCCCCCCCCC)CC1 [Compound 10] too.
Output: 6.58

Input: Please give the result for CCCCCCCCCCCCN(CCCCCCCCCCCC)CCN1CCN(CCN(CCCCCC)CCN(CCCCCC)CCCCCC)CC1 [Compound 17] too.
Output: 6.67

Input: Please give the result for CCCCCCCCCN(CCCCCCCCC)CCC(=O)N1CCN(C(=O)CCN(CCCCCCCCC)CCN(CCCCCCCCC)CCCCCCCCC)CC1 [Compound 52] too.
Output: 6.77

Input: Please give the result for CCCCCCCCCCCCN(CCCCCCCCCCCC)CC(=O)N1CCN(C(=O)CN(CCCCCCCCC)CCN(CCCCCCCCC)CCCCCCCCC)CC1 [Compound 8] too.
Output: 6.87

Input: Please give the result for CCCCCCCCCN(CCCCCCCCC)CCC1CCN(C(=O)CN(CCCCCCCCC)CCN(CCCCCCCCC)CCCCCCCCC)CC1 [Compound 49] too.
Output: 6.4

Input: Please give the result for CCCCCCCCCCCCN(CCCCCCCCCCCC)CCN(CCCCCCCCCCCC)CC(=O)N1CCN(C(=O)CN(CCCCCCCCC)CCCCCCCCC)CC1 [Compound 7] too.
Output: 6.94

Input: Please give the result for CCCCC/C=C\C/C=C\CCCCCCCCN(CCCCCCCC/C=C\C/C=C\CCCCC)CCN1CCN(CCN(CCCCCCCCCCCC)CCN(CCCCCCCCCCCC)CCCCCCCCCCCC)CC1 [Compound 29] too.
Output: 5.97
